# study-target: T1, cynomolgus DLL4 expressed on CHO cells (cynomolgus, UniProt Q9NR61 27-685 (human entry))
# T1 construct: also called cDLL4; CHO-cDLL4
# T1 chain: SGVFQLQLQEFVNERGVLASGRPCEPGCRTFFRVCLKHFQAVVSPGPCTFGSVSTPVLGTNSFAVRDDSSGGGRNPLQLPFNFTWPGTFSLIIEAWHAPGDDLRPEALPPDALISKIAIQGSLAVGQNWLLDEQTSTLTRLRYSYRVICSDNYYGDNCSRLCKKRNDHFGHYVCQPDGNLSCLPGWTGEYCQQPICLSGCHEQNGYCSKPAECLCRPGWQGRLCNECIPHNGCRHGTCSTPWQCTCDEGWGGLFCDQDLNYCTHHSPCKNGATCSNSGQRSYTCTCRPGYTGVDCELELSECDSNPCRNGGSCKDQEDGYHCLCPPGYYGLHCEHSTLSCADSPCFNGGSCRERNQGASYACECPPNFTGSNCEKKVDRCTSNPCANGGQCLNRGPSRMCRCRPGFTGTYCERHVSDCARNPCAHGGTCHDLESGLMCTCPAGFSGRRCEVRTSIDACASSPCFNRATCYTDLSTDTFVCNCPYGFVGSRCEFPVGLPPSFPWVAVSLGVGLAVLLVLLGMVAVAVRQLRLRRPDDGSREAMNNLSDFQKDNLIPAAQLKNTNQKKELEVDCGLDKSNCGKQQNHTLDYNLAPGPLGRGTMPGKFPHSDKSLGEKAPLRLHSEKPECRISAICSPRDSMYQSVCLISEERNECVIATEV
# test-summary: FACS on CHO-cDLL4 cells
Attribute: pEC50
Hey, just a heads up that pEC50 is the negative log base 10 of the concentration in molar.

• DLLBII015 (VHH, not shown: small tags and cut ends) VHH: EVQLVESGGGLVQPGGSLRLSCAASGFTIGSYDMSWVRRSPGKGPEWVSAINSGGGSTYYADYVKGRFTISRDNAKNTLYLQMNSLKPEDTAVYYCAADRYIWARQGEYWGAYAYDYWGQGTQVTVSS = 8.29

Now for a further binder.
input: Which pEC50 value belongs to DLLBII129D08 (VHH, not shown: small tags and cut ends) VHH: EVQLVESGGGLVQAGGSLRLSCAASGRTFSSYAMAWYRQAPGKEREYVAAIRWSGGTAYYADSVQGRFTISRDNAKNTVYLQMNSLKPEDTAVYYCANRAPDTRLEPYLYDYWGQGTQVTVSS ?
output: 8.42
